tested on: Vero E6 infected with SARS-CoV-2; experiment: inhibition of SARS-CoV-2 cytopathic effect; higher = more antiviral protection, active = above 15; conditions: 100 nM; 48 h
parameter measured: inhibition of SARS-CoV-2 cytopathic effect

| compound | result |
| --- | --- |
| c1cc(OCCN2CCCCC2)cc(-c2n[nH]c3ccc(-c4nnc[nH]4)cc23)c1 | -0.96% (inactive) |
| COC(=O)N[C@@H](C)CNc1nccc(-c2cn(C(C)C)nc2-c2cc(Cl)cc(NS(C)(=O)=O)c2F)n1 | 2.88% (inactive) |
| O[C@@H]1[C@H](O)[C@@H](CCl)O[C@H]1n1cnc2c(NC3CC4CCC3C4)ncnc21 (mixture of isomers) [5'-chloro-5'-deoxy-ENBA-(+/-)] | 0.3% (inactive) |
| CCCCOC(=O)c1ccc(N)cc1 | 2.37% (inactive) |
| NC(=O)NCCC[C@H](N)C(=O)O | 1.8% (inactive) |
| COC(=O)[C@H](Cc1cccc(C(=N)N)c1)[C@@H](C)NC(=O)c1ccc(-c2cc[n+]([O-])cc2)cc1 | -1.48% (inactive) |
| COc1ccc2cccc(CCNC(C)=O)c2c1 | -2.18% (inactive) |
| CCN1CCN(C(=O)N[C@@H](C(=O)N[C@@H]2C(=O)N3[C@@H]2SC(C)(C)[C@@H]3C(=O)O)c2ccccc2)C(=O)C1=O | -1.44% (inactive) |
| CCC(=O)OCC(=O)[C@@]1(OC(=O)CC)[C@@H](C)C[C@H]2[C@@H]3CCC4=CC(=O)C=C[C@]4(C)[C@@]3(F)[C@@H](O)C[C@@]21C | -1.61% (inactive) |
| Clc1ccc(C(c2ccc(Cl)cc2)C(Cl)(Cl)Cl)cc1 | 0.57% (inactive) |
| O=C(Nc1c[nH]nc1-c1nc2ccc(CN3CCOCC3)cc2[nH]1)NC1CC1 | 0.35% (inactive) |
| O=C1NC(=O)c2cc(Nc3ccccc3)c(Nc3ccccc3)cc21 | -0.24% (inactive) |
| CCN(CC)CCNC(=O)COc1ccc(OC)cc1 [mefexamide] | -0.86% (inactive) |
| CC(C)CC(=O)N[C@H](C(=O)N[C@H](C(=O)N[C@@H](CC(C)C)[C@@H](O)CC(=O)N[C@@H](C)C(=O)N[C@@H](CC(C)C)[C@@H](O)CC(=O)O)C(C)C)C(C)C | -0.17% (inactive) |
| O=C(O)c1ccc(/C=C2\SC(=S)N(c3cccc(C(F)(F)F)c3)C2=O)cc1 | -2.17% (inactive) |
| OC(c1ccc(-c2ccc(CN3CCN(Cc4ccncc4)CC3)cc2)c(F)c1)(C(F)(F)F)C(F)(F)F | -2.07% (inactive) |
| CCOc1ccc(Cc2cc([C@]34OC[C@](CO)(O3)[C@@H](O)[C@H](O)[C@H]4O)ccc2Cl)cc1 | -2.3% (inactive) |
| CC(C)C[C@@H]1NC(=O)[C@@H](C(C)C)NC(=O)[C@@H]2CCCN2C(=O)[C@@H](CC(=O)O)NC(=O)[C@@H](Cc2c[nH]c3ccccc23)NC1=O | -0.29% (inactive) |
| Cc1sc(C)c(C(=O)NC2(c3ccc(C(=O)O)cc3)CC2)c1Cc1ccc(C(F)(F)F)cc1 | -0.49% (inactive) |
| Cn1c(=O)c(F)c(Nc2ccc(I)cc2F)c2c(=O)n(C[C@@H](O)CO)cnc21 | -11% (inactive) |
| CCN(Cc1ccncc1)C(=O)C(CO)c1ccccc1 (configuration not stated) [tropicamide] | 3.33% (inactive) |
| NC(CO)(CO)CO | -0.26% (inactive) |
| CNC(=O)O[C@H]1COc2ccc(N3CCN(C4COC4)CC3)cc2[C@@H]1NC(=O)c1ccc(F)cc1 | -1.06% (inactive) |
| NCC(=O)Nc1ccc(-n2nc(C(F)(F)F)cc2-c2ccc3c(ccc4ccccc43)c2)cc1 | 2.09% (inactive) |
| CCS(=O)(=O)N(C)[C@H]1c2cc(C#N)ccc2OC(C)(C)[C@@H]1O [chromanol-293B-(-)-[3R,4S]] | 0.8% (inactive) |
| COC(=O)C1=C(C)NC(C)=C(C(=O)OCCN(C)Cc2ccccc2)C1c1cccc([N+](=O)[O-])c1 (configuration not stated) | 0.23% (inactive) |
| CCN1CCCC1=O | 3.54% (inactive) |
